biological target: NEDD4L WW3 domain; assay: FP
Sequence (chain, as listed by the source): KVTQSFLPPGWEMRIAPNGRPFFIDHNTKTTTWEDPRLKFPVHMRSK
pKd: −log10 of the molar value. Ends that are not written are not given here. Oregon Green 488 maleimide = Oregon Green 488 maleimide fluorescent label attached to the N-terminal cysteine
measurementName: pKd

>>> quantitativeresult("C(Oregon Green 488 maleimide)MQNNEELPTYEEAKV [AMOT PPxY1 peptide (residues 100-114), Oregon Green 488-labelled]")
5.20
>>> quantitativeresult("C(Oregon Green 488 maleimide)MQNNEEPPTYEEAKV [AMOT PPxY1 L106P mutant peptide]")
5.17
>>> quantitativeresult("C(Oregon Green 488 maleimide)MEHRGPLPEYPFKGM [AMOT PPxY2 P239L mutant peptide]")
4.11

Recorded values, source paper PMC8368996.
